// data source = ChEMBL document CHEMBL1143105

- Tested on: Hepatitis C virus
- Experiment notes: Antiviral activity in hepatitis C virus by cell based replicon assay
- Type: functional, organism-based, Hepacivirus hominis
*1 amine or outer side, *2 acyl side, *3 side chain or, on linkers, in order; H or OH if unused. Where a SMILES comes first, the peptide text is derived from it. [ ]: non-standard residue; d: D form. The star is where a group is joined. Pro(3R,4S-CMe2) = CC1(C)[C@@H]2[C@@H](C(=O)O)NC[C@@H]21; X1 = O=C(C(=O)[*:2])C(CC1CC1)N[*:1]; Phg = N[C@H](C(=O)O)c1ccccc1; Tle = CC(C)(C)[C@H](N)C(=O)O; Boc = CC(C)(C)OC(=O)*
Measured property: EC50 (nM)

[
  {
    "Molecule": "CC(C)(C)NC(=O)N[C@H](C(=O)N1C[C@H]2[C@@H]([C@H]1C(=O)NC(CC1CCC1)C(=O)C(N)=O)C2(Cl)Cl)C1CCCCC1 (stereo partly specified)",
    "Measured property": "EC50",
    "Obs value": 300
  },
  {
    "Molecule": "CC(C)(C)NC(=O)N[C@H](C(=O)N1C[C@H]2[C@@H]([C@H]1C(=O)NC(CC1CCC1)C(=O)C(N)=O)C2(C)C)C(C)(C)C (stereo partly specified)",
    "Measured property": "EC50",
    "Obs value": 200
  },
  {
    "Molecule": "CN(C)C(=O)[C@@H](NC(=O)CNC(=O)C(=O)C(CC1CC1)NC(=O)[C@@H]1[C@@H]2[C@H](CN1C(=O)[C@@H](NC(=O)OC(C)(C)C)C(C)(C)C)C2(C)C)c1ccccc1 (stereo partly drawn) (Boc-[Tle][Pro(3R,4S-CMe2)][X1]G[Phg]-NMe2)",
    "Measured property": "EC50",
    "Obs value": 40
  },
  {
    "Molecule": "CC(C)(C)NC(=O)N[C@H](C(=O)N1C[C@H]2[C@@H]([C@H]1C(=O)NC(CC1CCC1)C(=O)C(N)=O)C2(Cl)Cl)C(C)(C)C (stereo partly specified)",
    "Measured property": "EC50",
    "Obs value": 200
  },
  {
    "Molecule": "NC(=O)C(=O)C(CC1CCC1)NC(=O)[C@@H]1[C@@H]2[C@H](CN1C(=O)[C@@H](NC(=O)OC1CC3CCC1C3)C1CCCCC1)C2(Cl)Cl (stereo partly specified)",
    "Measured property": "EC50",
    "Obs value": 200
  },
  {
    "Molecule": "CC(C)(C)OC(=O)N[C@H](C(=O)N1C[C@H]2[C@@H]([C@H]1C(=O)NC(CC1CC1)C(=O)C(N)=O)C2(Cl)Cl)C1CCCCC1 (stereo partly specified)",
    "Measured property": "EC50",
    "Obs value": 500
  }
]

* * *

- Experiment notes: Inhibition of hepatitis C virus NS3 serine protease
- Set-up: species or system Hepacivirus hominis
pKi: −log10 of the molar value.

[
  {
    "Compound": "C=CCNC(=O)C(=O)C(CCC)NC(=O)[C@@H]1[C@@H]2[C@H](CN1C(=O)[C@@H](NC(=O)OC(C)(C)C)C1CCCCC1)C2(Cl)Cl (stereo partly drawn)",
    "pKi": 7.05
  },
  {
    "Compound": "C[C@@H](NC(=O)N[C@H](C(=O)N1C[C@H]2[C@@H]([C@H]1C(=O)NC(CC1CCC1)C(=O)C(N)=O)C2(Cl)Cl)C1CCCCC1)C(C)(C)C (stereo partly drawn)",
    "pKi": 8.00
  },
  {
    "Compound": "NC(=O)C(=O)C(CC1CCC1)NC(=O)[C@@H]1[C@@H]2[C@H](CN1C(=O)[C@@H](NC(=O)NC1CCCCC1)C1CCCCC1)C2(Cl)Cl (stereo partly drawn)",
    "pKi": 7.82
  }
]

* * *

Reported AUC values follow for various compounds
- Experiment notes: AUC in rat at 10 mg/kg, iv
- Type: ADME, organism-based
- Set-up: dose 10 mg/kg, route intravenous
- Experimental parameters: plasma

[
  {
    "Compound": "CC(C)(C)OC(=O)N[C@H](C(=O)N1C[C@H]2[C@@H]([C@H]1C(=O)NC(CC1CC1)C(=O)C(N)=O)C2(Cl)Cl)C1CCCCC1 (some centres not stated)",
    "AUC, µM·h": 10.7
  },
  {
    "Compound": "CC(C)(C)OC(=O)N[C@H](C(=O)N1C[C@H]2[C@@H]([C@H]1C(=O)NC(CC1CCC1)C(=O)C(N)=O)C2(Cl)Cl)C(C)(C)C (some centres not stated)",
    "AUC, µM·h": 2.6
  }
]

* * *

- Experiment notes: AUC in monkey at 3 mg/kg, po
- Type: ADME, organism-based, Macaca mulatta
- Parameters: dose 3 mg/kg, route oral
- Experimental parameters: rhesus monkey, plasma

[
  {
    "Compound": "CC(C)(C)OC(=O)N[C@H](C(=O)N1C[C@H]2[C@@H]([C@H]1C(=O)NC(CC1CCC1)C(=O)C(N)=O)C2(Cl)Cl)C(C)(C)C (some centres not stated)",
    "AUC": "0.77 µM·h"
  },
  {
    "Compound": "CC(C)(C)OC(=O)N[C@H](C(=O)N1C[C@H]2[C@@H]([C@H]1C(=O)NC(CC1CC1)C(=O)C(N)=O)C2(Cl)Cl)C1CCCCC1 (some centres not stated)",
    "AUC": "0.13 µM·h"
  }
]

* * *

Reported AUC values follow for various compounds
- Experiment notes: AUC in rat at 10 mg/kg, po
- Format: ADME, organism-based
- Parameters: dose 10 mg/kg, route oral
- Experimental parameters: plasma

[
  {
    "Compound": "NC(=O)C(=O)C(CC1CCC1)NC(=O)[C@@H]1[C@@H]2[C@H](CN1C(=O)[C@@H](NC(=O)OC1CC3CCC1C3)C1CCCCC1)C2(Cl)Cl (stereo not given in full)",
    "AUC / nM·h": 750
  },
  {
    "Compound": "CC(C)(C)OC(=O)N[C@H](C(=O)N1C[C@H]2[C@@H]([C@H]1C(=O)NC(CC1CCC1)C(=O)C(N)=O)C2(Cl)Cl)C(C)(C)C (stereo not given in full)",
    "AUC / nM·h": 300
  },
  {
    "Compound": "CC(C)(C)OC(=O)N[C@H](C(=O)N1C[C@H]2[C@@H]([C@H]1C(=O)NC(CC1CCC1)C(=O)C(N)=O)C2(Cl)Cl)C1CCCCC1 (stereo not given in full)",
    "AUC / nM·h": 2400
  },
  {
    "Compound": "CC(C)(C)OC(=O)N[C@H](C(=O)N1C[C@H]2[C@@H]([C@H]1C(=O)NC(CC1CC1)C(=O)C(N)=O)C2(Cl)Cl)C1CCCCC1 (stereo not given in full)",
    "AUC / nM·h": 2700
  },
  {
    "Compound": "CC(C)(C)NC(=O)N[C@H](C(=O)N1C[C@H]2[C@@H]([C@H]1C(=O)NC(CC1CCC1)C(=O)C(N)=O)C2(Cl)Cl)C1CCCCC1 (stereo not given in full)",
    "AUC / nM·h": 320
  }
]

* * *

- Experiment notes: Oral bioavailability in monkey
- Assay type: ADME, organism-based, Macaca mulatta
- Experimental parameters: rhesus monkey, in vivo
*1 amine or outer side, *2 acyl side, *3 side chain or, on linkers, in order; H or OH if unused. Where a SMILES comes first, the peptide text is derived from it. [ ]: non-standard residue; d: D form. The star is where a group is joined. Pro(3R,4S-CMe2) = CC1(C)[C@@H]2[C@@H](C(=O)O)NC[C@@H]21; X1 = O=C(C(=O)[*:2])C(CC1CC1)N[*:1]; Phg = N[C@H](C(=O)O)c1ccccc1; Tle = CC(C)(C)[C@H](N)C(=O)O; Boc = CC(C)(C)OC(=O)*
Reported bioavailability values follow for various molecules
Measured property: bioavailability (%)

[
  {
    "Molecule": "CC(C)(C)OC(=O)N[C@H](C(=O)N1C[C@H]2[C@@H]([C@H]1C(=O)NC(CC1CC1)C(=O)C(N)=O)C2(Cl)Cl)C1CCCCC1 (some centres undefined)",
    "Obs value": 8
  },
  {
    "Molecule": "CC(C)(C)OC(=O)N[C@H](C(=O)N1C[C@H]2[C@@H]([C@H]1C(=O)NC(CC1CCC1)C(=O)C(N)=O)C2(Cl)Cl)C(C)(C)C (some centres undefined)",
    "Obs value": 50
  },
  {
    "Molecule": "CN(C)C(=O)[C@@H](NC(=O)CNC(=O)C(=O)C(CC1CC1)NC(=O)[C@@H]1[C@@H]2[C@H](CN1C(=O)[C@@H](NC(=O)OC(C)(C)C)C(C)(C)C)C2(C)C)c1ccccc1 (stereo partly drawn) (Boc-[Tle][Pro(3R,4S-CMe2)][X1]G[Phg]-NMe2)",
    "Obs value": 1
  },
  {
    "Molecule": "CC(C)(C)OC(=O)N[C@H](C(=O)N1C[C@H]2[C@@H]([C@H]1C(=O)NC(CC1CCC1)C(=O)C(N)=O)C2(Cl)Cl)C1CCCCC1 (some centres undefined)",
    "Obs value": 4
  }
]
